These measurements were taken from ChEMBL document CHEMBL1800071.

# maps each entry to its pIC50
Target: Glycogen synthase kinase-3 beta (Homo sapiens, UniProt P49841)
Sequence (P49841 whole entry): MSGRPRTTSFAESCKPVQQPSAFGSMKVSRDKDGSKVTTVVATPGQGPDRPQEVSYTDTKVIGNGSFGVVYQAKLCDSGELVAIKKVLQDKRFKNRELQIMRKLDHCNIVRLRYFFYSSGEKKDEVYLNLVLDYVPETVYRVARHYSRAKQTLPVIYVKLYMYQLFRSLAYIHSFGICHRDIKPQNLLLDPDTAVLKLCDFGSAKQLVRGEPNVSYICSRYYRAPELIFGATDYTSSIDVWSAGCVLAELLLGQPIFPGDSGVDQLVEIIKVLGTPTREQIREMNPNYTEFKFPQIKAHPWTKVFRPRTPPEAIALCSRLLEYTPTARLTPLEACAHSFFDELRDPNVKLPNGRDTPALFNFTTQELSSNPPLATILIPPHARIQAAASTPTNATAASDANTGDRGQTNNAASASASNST
Assay: Inhibition of human recombinant GSK3-beta using prephosphorylated polypeptide substrate after 30 mins by Glow-type luminescence assay in presence of 1 uM ATP
Quick note: pIC50 means taking -log10 of the concentration in moles per liter.

| STRUCTURE_SMILES | MEASURED_ON | RESULT_VALUE |
| --- | --- | --- |
| CC(=O)C1=C(c2c[nH]c3ccccc23)C(=O)NC1=O | Glycogen synthase kinase-3 beta (Homo sapiens, UniProt P49841) | 5.35 |
| O=C(CBr)C1=C(c2c[nH]c3ccccc23)C(=O)NC1=O | Glycogen synthase kinase-3 beta (Homo sapiens, UniProt P49841) | 7.33 |
| Cn1cc(C2=C(C(=O)CBr)C(=O)NC2=O)c2ccccc21 | Glycogen synthase kinase-3 beta (Homo sapiens, UniProt P49841) | 8.30 |
| COc1ccc(-n2cnc3cc(C(=O)CBr)ccc32)cc1 | Glycogen synthase kinase-3 beta (Homo sapiens, UniProt P49841) | 6.24 |
| Nc1ncnc2c1ncn2C(=O)CCl | Glycogen synthase kinase-3 beta (Homo sapiens, UniProt P49841) | 4.87 |

Return reported pIC50. Input compound: CC(=O)C1=C(c2cn(C)c3ccccc23)C(=O)NC1=O 6.05

---

Biological target: Glycogen synthase kinase-3 beta (Homo sapiens, UniProt P49841)
Assay: Inhibition of GSK3-beta using GS1 as substrate and [gamma-32P]ATP after 20 mins by radiometric assay
Lab note: cut-off is 6 µM. Strictly less in IC50 is Yes. Exactly 6 µM or more is No.

Completed entries (count: 4):
| COMPOUND | MEASURED_ON | CLASS_ASSIGNMENT |
| --- | --- | --- |
| CO/N=C(\CBr)c1ccc(Br)cc1 | Glycogen synthase kinase-3 beta (Homo sapiens, UniProt P49841) | No |
| CCSCC(=O)c1ccc(Br)cc1 | Glycogen synthase kinase-3 beta (Homo sapiens, UniProt P49841) | No |
| O=C(c1ccc(C(F)(F)F)cc1)C(Br)Br | Glycogen synthase kinase-3 beta (Homo sapiens, UniProt P49841) | Yes |
| O=C(CN1C(=O)c2ccccc2C1=O)c1ccc(Br)cc1 | Glycogen synthase kinase-3 beta (Homo sapiens, UniProt P49841) | No |

Take the compound N#Cc1cccc(C(=O)C(Br)Br)c1 and say whether its IC50 is less than 6 µM. Yes

# TODO verify IC50 < 6 µM strictly for this compound: [O-][S+](CCl)c1ccc(Br)cc1 (configuration not stated) No
